# system under test: 5-hydroxytryptamine receptor 2C (Rattus norvegicus) (UniProt P08909)
# Sequence (P08909 whole entry): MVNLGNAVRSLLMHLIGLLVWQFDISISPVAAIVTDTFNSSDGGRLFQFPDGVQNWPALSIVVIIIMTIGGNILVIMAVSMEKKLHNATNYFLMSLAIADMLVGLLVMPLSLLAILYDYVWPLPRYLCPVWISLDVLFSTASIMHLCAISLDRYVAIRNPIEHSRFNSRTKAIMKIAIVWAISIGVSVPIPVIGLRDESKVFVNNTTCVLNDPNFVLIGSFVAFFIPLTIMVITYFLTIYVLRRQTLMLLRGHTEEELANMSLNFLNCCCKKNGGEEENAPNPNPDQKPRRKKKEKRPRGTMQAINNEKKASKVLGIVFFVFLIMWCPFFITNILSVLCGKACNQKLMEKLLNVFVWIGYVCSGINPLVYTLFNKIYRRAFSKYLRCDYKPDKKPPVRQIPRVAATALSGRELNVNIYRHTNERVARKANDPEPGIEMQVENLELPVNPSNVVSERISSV
# protocol: Displacement of [3H]mesulergine from 5-HT2C receptor in Sprague-Dawley rat choroid plexus membranes at 1000 nM after 30 mins by liquid scintillation spectrophotometric analysis relative to control
# condition: Membrane
endpoint name: inhibition (%)

[[record]]
compound = "CN(C)CCC(Oc1ccc(NC(=O)Nc2ccc3ccccc3c2)cn1)c1ccccc1 (centres undefined)"
experimental_value = 43

[[record]]
compound = "CN(C)CCC(Oc1ccc(NC(=O)Nc2ccc3ccn(C)c3c2)cn1)c1ccccc1 (centres undefined)"
experimental_value = 15

[[record]]
compound = "CN(C)CCC(Oc1ccc(NC(=O)Nc2ccc3c(ccn3C)c2)cn1)c1ccccc1 (centres undefined)"
experimental_value = 7

[[record]]
compound = "CN(C)CCC(Oc1ccc(NC(=O)Nc2ccc3nccn3c2)cc1)c1ccccc1 (centres undefined)"
experimental_value = 53


----------
# system under test: Sodium-dependent serotonin transporter (Rattus norvegicus)
# protocol: Displacement of [3H]citalopram from SERT in Sprague-Dawley rat whole brain membranes at 300 nM after 1 hr by liquid scintillation spectrophotometric analysis relative to control
# Type: tissue-based
# condition: Membrane
endpoint name: inhibition (%)

[[record]]
compound = "CSc1ccc(NC(=O)Nc2ccc(OC(CCN(C)C)c3ccccc3)cc2)cc1C(F)(F)F (stereo unspecified)"
experimental_value = 31

[[record]]
compound = "CN(C)CCC(Oc1ccc(NC(=O)Nc2ccc3ccn(C)c3c2)cn1)c1ccccc1 (stereo unspecified)"
experimental_value = 1

[[record]]
compound = "CN(C)CCC(Oc1ccc(NC(=O)Nc2ccc3c(ccn3C)c2)cn1)c1ccccc1 (stereo unspecified)"
experimental_value = -5

[[record]]
compound = "COc1cc(NC(=O)Nc2ccc(Cl)c(Cl)c2)ccc1OC(CCN(C)C)c1ccccc1 (stereo unspecified)"
experimental_value = 38

[[record]]
compound = "COc1ccc(NC(=O)Nc2ccc(Cl)c(Cl)c2)cc1OC(CCN(C)C)c1ccccc1 (stereo unspecified)"
experimental_value = -9

[[record]]
compound = "CN(C)CCC(Oc1ccc(NC(=O)Nc2ccc3ccccc3c2)cn1)c1ccccc1 (stereo unspecified)"
experimental_value = 3


----------
# protocol: in vitro
# condition: human, Caco-2
# Description: Efflux ratio of apparent permeability from basolateral to apical over apical to basolateral side in vinblastine-treated human Caco2 cells at 3 to 50 uM
Could you please mark condition met for values of efflux ratio at 50 µM below 2 and condition not met for values at or above it?

[[record]]
compound = "CN(C)CCC(Oc1ccc(NC(=O)c2ccc(Cl)c(Cl)c2)cc1)c1ccccc1 (stereo not given)"
category = "condition met"

[[record]]
compound = "CN(C)CCC(Oc1ccc(NC(=O)N(C)c2ccc(Cl)c(Cl)c2)cc1)c1ccccc1 (stereo not given)"
category = "condition met"

[[record]]
compound = "Cc1ccc(C(=O)Nc2ccc(OC(CCN(C)C)c3ccccc3)cc2)cc1Cl (stereo not given)"
category = "condition met"

[[record]]
compound = "CN(C)CCC(Oc1ccc(NC(=O)Nc2ccc3c(ccn3C)c2)cc1)c1ccccc1 (stereo not given)"
category = "condition not met"

[[record]]
compound = "COc1ccc(NC(=O)Nc2ccc(OC(CCN(C)C)c3ccccc3)cc2)cc1Cl (stereo not given)"
category = "condition not met"


----------
# Test system: Liver microsome
# protocol: Intrinsic clearance in human liver microsomes measured per gram of tissue at 2.5 uM after 20 mins
# Format: ADME
endpoint name: CLH

[[record]]
molecule = "Cc1ccc(NC(=O)Nc2ccc(OC(CCN(C)C)c3ccccc3)cc2)cc1Cl (centres undefined)"
endpoint_name = "CLH"
experimental_value = "0.06 mL/min"

[[record]]
molecule = "CN(C)CCC(Oc1ccc(NC(=O)c2ccc(Cl)c(Cl)c2)cc1)c1ccccc1 (centres undefined)"
endpoint_name = "CLH"
experimental_value = "0.65 mL/min"

[[record]]
molecule = "COc1ccc(NC(=O)Nc2ccc(OC(CCN(C)C)c3ccccc3)cc2)cc1Cl (centres undefined)"
endpoint_name = "CLH"
experimental_value = "0.68 mL/min"

[[record]]
molecule = "Cc1ccc(C(=O)Nc2ccc(OC(CCN(C)C)c3ccccc3)cc2)cc1Cl (centres undefined)"
endpoint_name = "CLH"
experimental_value = "0.59 mL/min"

